systemTested: particulate guanylyl cyclase receptor A (pGC-A) (Homo sapiens, UniProt P16066)
Sequence (P16066 33-1061): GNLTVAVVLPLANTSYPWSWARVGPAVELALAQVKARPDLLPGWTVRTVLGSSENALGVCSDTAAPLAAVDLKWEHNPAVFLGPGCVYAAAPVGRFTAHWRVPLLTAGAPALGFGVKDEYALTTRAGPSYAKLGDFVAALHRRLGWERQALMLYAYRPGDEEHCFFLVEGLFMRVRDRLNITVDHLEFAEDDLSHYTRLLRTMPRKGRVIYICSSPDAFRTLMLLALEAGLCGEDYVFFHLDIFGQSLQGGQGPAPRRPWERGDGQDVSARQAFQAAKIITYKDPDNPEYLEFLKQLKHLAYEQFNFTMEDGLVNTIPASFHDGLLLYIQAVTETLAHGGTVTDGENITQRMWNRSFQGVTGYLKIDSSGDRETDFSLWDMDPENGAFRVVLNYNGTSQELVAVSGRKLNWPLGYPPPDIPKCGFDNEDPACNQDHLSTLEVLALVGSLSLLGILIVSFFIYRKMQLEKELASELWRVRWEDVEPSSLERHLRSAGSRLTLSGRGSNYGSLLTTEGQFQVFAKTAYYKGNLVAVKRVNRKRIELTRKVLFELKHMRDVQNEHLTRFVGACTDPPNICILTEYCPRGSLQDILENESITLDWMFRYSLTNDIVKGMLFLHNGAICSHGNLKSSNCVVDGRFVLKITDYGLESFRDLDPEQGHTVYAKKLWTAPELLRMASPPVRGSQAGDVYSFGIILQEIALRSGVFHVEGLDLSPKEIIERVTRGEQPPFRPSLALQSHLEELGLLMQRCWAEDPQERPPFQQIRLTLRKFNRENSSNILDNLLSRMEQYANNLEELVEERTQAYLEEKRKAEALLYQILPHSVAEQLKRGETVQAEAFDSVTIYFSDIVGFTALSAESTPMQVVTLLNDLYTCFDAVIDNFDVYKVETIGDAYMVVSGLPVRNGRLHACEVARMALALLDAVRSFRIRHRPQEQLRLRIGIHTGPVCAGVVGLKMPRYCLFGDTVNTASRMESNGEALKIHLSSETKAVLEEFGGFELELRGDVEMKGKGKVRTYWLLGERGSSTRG
Sequence (P01160 124-151 partner limits assumed): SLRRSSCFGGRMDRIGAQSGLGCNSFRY
assayName: cGMP production by HTRF in HEK293 cells overexpressing pGC-A, with ANP
appliedConditions: HEK293 cells overexpressing pGC-A; test compound plus EC20 concentration of ANP; cGMP by HTRF

molecule: O=C(Nc1nc2c(F)cc(F)cc2s1)C1CCCN(C(=O)N2CCCC2)C1 (centres unmarked)
systemTested: particulate guanylyl cyclase receptor A (pGC-A) (Homo sapiens, UniProt P16066)
EC50: > 5 µM
--
molecule: O=C(Nc1nc2c(F)cc(F)cc2s1)c1ccccc1
systemTested: particulate guanylyl cyclase receptor A (pGC-A) (Homo sapiens, UniProt P16066)
EC50: > 10 µM
--
molecule: CN(C)CCN1CCCC(C(=O)Nc2nc3c(-c4ccccc4)cccc3s2)C1 (centres unmarked)
systemTested: particulate guanylyl cyclase receptor A (pGC-A) (Homo sapiens, UniProt P16066)
EC50: > 10 µM
--
molecule: CN(C)CCN1CCCC(C(=O)Nc2nc(-c3ccccc3F)cs2)C1 (centres unmarked)
systemTested: particulate guanylyl cyclase receptor A (pGC-A) (Homo sapiens, UniProt P16066)
EC50: > 5 µM
--
molecule: CN(C)CCN1CCCC(C(=O)Nc2nc3c(Cl)c(Cl)ccc3s2)C1 (centres unmarked)
systemTested: particulate guanylyl cyclase receptor A (pGC-A) (Homo sapiens, UniProt P16066)
EC50: 1.4 µM

###

As shown below, each of these molecules has a reported pEC50 value.
systemTested: particulate guanylyl cyclase receptor A (pGC-A) (Homo sapiens, UniProt P16066)
assayName: cGMP production by HTRF in HEK293 cells overexpressing pGC-A, with ANP
appliedConditions: HEK293 cells overexpressing pGC-A; test compound plus EC20 concentration of ANP; cGMP by HTRF
pEC50: −log10 of the molar value.

molecule: Cc1cccc2sc(NC(=O)C3CCCN(CCN(C)C)C3)nc12 (centres unmarked)
qualifyingSign: <
pEC50: 5.00
//
molecule: CN(C)CCC1CCN(c2nc3c(F)cc(F)cc3s2)C(=O)C1 (centres unmarked)
qualifyingSign: <
pEC50: 5.30
//
molecule: COc1ccc2nc(NC(=O)C3CCCN(CCN(C)C)C3)sc2c1 (centres unmarked)
qualifyingSign: <
pEC50: 5.00
//
molecule: CCN1CC(N2CCCC(C(=O)Nc3nc4c(Cl)cc(F)cc4s3)C2)C1 (centres unmarked)
qualifyingSign: =
pEC50: 6.96
//
molecule: Cc1cccc2nc(NC(=O)C3CCCN(CCN(C)C)C3)sc12 (centres unmarked)
qualifyingSign: =
pEC50: 5.23

###

systemTested: particulate guanylyl cyclase receptor A (pGC-A) (Homo sapiens)
Construct: expressed in transfected cells; host or cells: HEK293
assayName: cGMP production by HTRF in HEK293 cells overexpressing pGC-A, with ANP
Type: cell-based
appliedConditions: HEK293 cells overexpressing pGC-A; cGMP normalized to maximal amount produced by an EC80 concentration of ANP
Text: Assay: Generally, the assay monitors the production of cGMP, the second messenger generated by pGC-A, by Time-Resolved Florescence (HTRF) in HEK293 cells overexpressing the pGC-A. pGC-A suspension cells were stimulated in the presence of the test compound and an EC20 concentration of ANP. The quantity of cGMP was detected by competitive immunoassay using Eu^3+ cryptate-labeled anti-cGMP and d2-labeled cGMP and normalized to maximal amount produced by an EC80 concentration of ANP. […]

molecule: O=C(Nc1nc2c(F)cc(F)cc2s1)C1CCCN(c2ccncn2)C1 (stereo not drawn) [compound 109]
systemTested: particulate guanylyl cyclase receptor A (pGC-A) (Homo sapiens)
Max efficacy [%]: 74

molecule: O=C(Nc1nc2c(F)cc(F)cc2s1)C1CCCN(C2CNC2)C1 (stereo not drawn) [compound 085]
systemTested: particulate guanylyl cyclase receptor A (pGC-A) (Homo sapiens)
Max efficacy [%]: 84

molecule: O=C(Nc1nc2c(F)cc(F)cc2s1)C1CCCN(Cc2ccncc2)C1 (stereo not drawn) [compound 110]
systemTested: particulate guanylyl cyclase receptor A (pGC-A) (Homo sapiens)
Max efficacy [%]: 78

molecule: CN(C)CCN1CCCC(C(=O)Nc2nc3cccc(Cl)c3s2)C1 (stereo not drawn) [compound 033]
systemTested: particulate guanylyl cyclase receptor A (pGC-A) (Homo sapiens)
Max efficacy [%]: 63

molecule: CN1CC(N2CCCC(C(=O)Nc3nc4c(F)cc(F)cc4s3)C2)C1 (stereo not drawn) [compound 084]
systemTested: particulate guanylyl cyclase receptor A (pGC-A) (Homo sapiens)
Max efficacy [%]: 67

molecule: CN1CCC(N2CCCC(C(=O)Nc3nc4c(F)cc(F)cc4s3)C2)C1 (stereo not drawn) [compound 090]
systemTested: particulate guanylyl cyclase receptor A (pGC-A) (Homo sapiens)
Max efficacy [%]: 69

molecule: COc1cc(F)c2nc(NC(=O)C3CCCN(CCN(C)C)C3)sc2c1 (stereo not drawn) [compound 021]
systemTested: particulate guanylyl cyclase receptor A (pGC-A) (Homo sapiens)
Max efficacy [%]: 77

###

systemTested: particulate guanylyl cyclase receptor A (pGC-A) (Homo sapiens, UniProt P16066)
Construct: expressed in transfected cells; host or cells: HEK293
assayName: cGMP production by HTRF in HEK293 cells overexpressing pGC-A, with ANP
Type: cell-based
appliedConditions: HEK293, HEK293 cells overexpressing pGC-A; cGMP normalized to maximal amount produced by an EC80 concentration of ANP; read-out: Max efficacy

compound: CN(C)CCN1CCCC(C(=O)Nc2nc3ccc(Cl)cc3s2)C1 (stereo not drawn) [compound 016]
unit: %
Emax: 94

compound: CN(C)CC(=O)N1CCCC(C(=O)Nc2nc3c(F)cc(F)cc3s2)C1 (stereo not drawn) [compound 230]
unit: %
Emax: 105

compound: CCN1CC(N2CCCC(C(=O)Nc3nc4c(Cl)cc(F)cc4s3)C2)C1 (stereo not drawn) [compound 135]
unit: %
Emax: 85

compound: O=C(Nc1nc2c(F)cc(F)cc2s1)C1CCCN(CCN2CCOCC2)C1 (stereo not drawn) [compound 244]
unit: %
Emax: 94

compound: O=C(Nc1nc2c(F)cc(F)cc2s1)C1CCCN(C2CNC2)C1 (stereo not drawn) [compound 085]
unit: %
Emax: 89

compound: O=C(Nc1nc2c(F)cc(F)cc2s1)C1CCCN(CCN2CCCC2=O)C1 (stereo not drawn) [compound 245]
unit: %
Emax: 102

compound: O=C(Nc1nc2c(F)cc(F)cc2s1)C1CCCN(CCNCCO)C1 (stereo not drawn) [compound 240]
unit: %
Emax: 105

compound: O=C1CCC(C(=O)Nc2nc3c(F)cc(F)cc3s2)CN1 (stereo not drawn) [compound 222]
unit: %
Emax: 58

compound: CN(C)C(=O)N1CCCC(C(=O)Nc2nc3c(Cl)cc(F)cc3s2)C1 (stereo not drawn) [compound 282]
unit: %
Emax: 61

###

systemTested: particulate guanylyl cyclase receptor A (pGC-A) (Homo sapiens, UniProt P16066)
assayName: cGMP production by HTRF in HEK293 cells overexpressing pGC-A, with ANP
appliedConditions: HEK293 cells overexpressing pGC-A; test compound plus EC20 concentration of ANP; cGMP by HTRF
We begin with a simple list: items and their reported EC50.

molecule: O=C(Nc1nc2c(Cl)cc(F)cc2s1)C1CCCN(C2CNC2)C1 (centres unmarked) [compound 136]
EC50: 300 nM
--
molecule: COCCN1CCC(N2CCCC(C(=O)Nc3nc4c(F)cc(F)cc4s3)C2)C1 (centres unmarked) [compound 093]
EC50: 90 nM
--
molecule: CN(C)CCCN1CCCC(C(=O)Nc2nc3c(F)cc(F)cc3s2)C1 (centres unmarked) [compound 231]
EC50: 900 nM
--
molecule: O=C(Nc1nc2c(Cl)cc(F)cc2s1)C1CCCN(c2ccnnc2)C1 (centres unmarked) [compound 115]
EC50: 100 nM
--
molecule: CN(C)CCN1CCCC(C(=O)Nc2nc3c(F)cc(C(F)(F)F)cc3s2)C1 (centres unmarked) [compound 019]
EC50: > 5000 nM

###

systemTested: particulate guanylyl cyclase receptor A (pGC-A) (Homo sapiens, UniProt P16066)
assayName: cGMP production by HTRF in HEK293 cells overexpressing pGC-A, with ANP
appliedConditions: HEK293 cells overexpressing pGC-A; test compound plus EC20 concentration of ANP; cGMP by HTRF
pEC50: −log10 of the molar value.
parameterMeasured: pEC50

compound: CN(C)CCN1CCCC(C(=O)Nc2nc3c(Cl)cc(F)cc3s2)C1 (stereo not drawn) [compound 253]
parameterMeasured: pEC50
qualifyingSign: =
reading: 7.30
--
compound: CN(C)CCC1CCCC(C(=O)Nc2nc3c(Cl)cc(F)cc3s2)C1 (stereo not drawn) [compound 215]
parameterMeasured: pEC50
qualifyingSign: =
reading: 6.05
--
compound: O=C(Nc1nc2c(F)cc(F)cc2s1)C1CCCN(c2ccncc2Br)C1 (stereo not drawn) [compound 113]
parameterMeasured: pEC50
qualifyingSign: <
reading: 5.30
--
compound: O=C(Nc1nc2c(F)cc(F)cc2c(=O)[nH]1)C1CCCNC1 (stereo not drawn) [compound 183]
parameterMeasured: pEC50
qualifyingSign: <
reading: 5.30
--
compound: CCOc1cc(F)c2nc(NC(=O)C3CCCN(CCN(C)C)C3)sc2c1 (stereo not drawn) [compound 026]
parameterMeasured: pEC50
qualifyingSign: <
reading: 5.30
--
compound: CN(C)CCN1CCCC(C(=O)Nc2nc3c(Cc4ccccc4)cccc3s2)C1 (stereo not drawn) [compound 004]
parameterMeasured: pEC50
qualifyingSign: <
reading: 5.00
--
compound: CN(C)C1CCN(CC(=O)Nc2nc3c(F)cc(F)cc3s2)CC1 [compound 219]
parameterMeasured: pEC50
qualifyingSign: =
reading: 5.82
--
compound: Cc1cc(F)c2nc(NC(=O)C3CCCN(CCN(C)C)C3)sc2c1 (stereo not drawn) [compound 020]
parameterMeasured: pEC50
qualifyingSign: =
reading: 6.05
--
compound: Cc1cc(N2CCCC(C(=O)Nc3nc4c(F)cc(F)cc4s3)C2)ccn1 (stereo not drawn) [compound 105]
parameterMeasured: pEC50
qualifyingSign: =
reading: 7.05

Data provenance is patent US20250092030A1.
